The reported numbers originate from ChEMBL document CHEMBL1137428.

outcome_measure: pIC50
For clarity, pIC50 is expressed as the negative log10 of concentration in mol/L.

*Q* Missing value: pIC50, Sodium-dependent dopamine transporter (Homo sapiens), entry CN1C2CCC1C1COC(=O)CCCCCC(=O)Nc3ccc(cc3)C1C2 (stereo not drawn) . Fill in?
*A* 8.42

*Q* # query: pIC50 | item CN1C(=O)CCCCCCCCC(=O)OCC2C(CC3CCC2N3C)c2ccc1cc2 (stereo not drawn) | system: Sodium-dependent dopamine transporter (Homo sapiens)
*A* 5.72

*Q* What reported pIC50 corresponds to CN1C2CCC1C1COC(=O)CCCCCCC(=O)Nc3ccc(cc3)C1C2 (stereo not drawn) on Sodium-dependent dopamine transporter (Homo sapiens)?
*A* 7.15

*Q* Give Sodium-dependent dopamine transporter (Homo sapiens) pIC50 for CN1C2CCC1C1COC(=O)CCCCC(=O)Nc3ccc(cc3)C1C2 (stereo not drawn)
*A* 6.05

*Q* Find pIC50 (Sodium-dependent dopamine transporter (Homo sapiens)) for the entry CN1CCCCCCCCCC(=O)OCC2C(CC3CCC2N3C)c2ccc1cc2 (stereo not drawn)
*A* 6.82

*Q* // map CN1C2CCC1C1COC(=O)CCCCCCCCC(=O)Nc3ccc(cc3)C1C2 (stereo not drawn) to recorded pIC50 (system: Sodium-dependent dopamine transporter (Homo sapiens))
Sequence (Q01959 whole entry): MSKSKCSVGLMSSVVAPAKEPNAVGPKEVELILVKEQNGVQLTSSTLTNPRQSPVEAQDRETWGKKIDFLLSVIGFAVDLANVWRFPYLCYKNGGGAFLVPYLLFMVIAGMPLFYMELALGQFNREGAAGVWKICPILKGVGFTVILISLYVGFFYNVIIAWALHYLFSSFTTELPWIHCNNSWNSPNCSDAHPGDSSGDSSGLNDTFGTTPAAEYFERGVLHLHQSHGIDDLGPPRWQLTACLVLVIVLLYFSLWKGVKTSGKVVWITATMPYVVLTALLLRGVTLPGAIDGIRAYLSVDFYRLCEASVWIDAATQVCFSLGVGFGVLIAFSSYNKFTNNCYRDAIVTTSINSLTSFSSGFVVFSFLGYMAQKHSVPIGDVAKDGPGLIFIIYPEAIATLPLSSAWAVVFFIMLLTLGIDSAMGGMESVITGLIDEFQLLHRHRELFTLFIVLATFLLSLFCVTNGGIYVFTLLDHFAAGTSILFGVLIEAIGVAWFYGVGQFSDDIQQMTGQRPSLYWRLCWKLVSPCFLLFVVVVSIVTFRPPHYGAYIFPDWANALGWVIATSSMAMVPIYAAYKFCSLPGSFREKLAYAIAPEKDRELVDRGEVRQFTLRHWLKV
*A* 6.89

*Q* Please provide the recorded pIC50 for CN1C2CCC1C1COC(=O)CCCCCCCC(=O)Nc3ccc(cc3)C1C2 (stereo not drawn) , tested on Sodium-dependent dopamine transporter (Homo sapiens).
*A* 6.39

*Q* So what pIC50 did CN1C2CCC1C1COC(=O)CCCCCCCCCCC(=O)Nc3ccc(cc3)C1C2 (stereo not drawn) get with Sodium-dependent dopamine transporter (Homo sapiens)?
*A* 6.41

*Q* Form field: pIC50 recorded for CN1C2CCC1C1COC(=O)CCSCCC(=O)Nc3ccc(cc3)C1C2 (stereo not drawn) with Sodium-dependent dopamine transporter (Homo sapiens) (enter value)
*A* 6.77

*Q* Lookup: pIC50 / Sodium-dependent dopamine transporter (Homo sapiens) / CN1C2CCC1C1COC(=O)CCC3(CCC(=O)Nc4ccc(cc4)C1C2)c1ccccc1-c1ccccc13 (stereo not drawn)
*A* 6.54

*Q* Any idea what pIC50 came out for CN1C2CCC1C1COC(=O)CCC(=O)CCC(=O)Nc3ccc(cc3)C1C2 (stereo not drawn) on Sodium-dependent dopamine transporter (Homo sapiens)?
*A* 6.80

*Q* Checklist item: pIC50 tested on Sodium-dependent dopamine transporter (Homo sapiens), entry CN1CCCCCCCCCCCC(=O)OCC2C(CC3CCC2N3C)c2ccc1cc2 (stereo not drawn) , value?
*A* 6.31
